# System name: UniProt:P32246
# Sequence (P32246 whole entry): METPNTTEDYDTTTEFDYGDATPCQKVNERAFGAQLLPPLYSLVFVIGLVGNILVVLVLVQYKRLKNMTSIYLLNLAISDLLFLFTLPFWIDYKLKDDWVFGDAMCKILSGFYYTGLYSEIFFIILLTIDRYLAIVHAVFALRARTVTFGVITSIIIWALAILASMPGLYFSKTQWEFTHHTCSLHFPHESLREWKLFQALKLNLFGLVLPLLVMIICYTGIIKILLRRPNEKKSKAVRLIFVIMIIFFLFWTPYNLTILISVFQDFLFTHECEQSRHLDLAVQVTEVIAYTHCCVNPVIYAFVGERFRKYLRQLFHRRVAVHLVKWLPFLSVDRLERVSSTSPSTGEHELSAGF
# Method notes: functional cellular assay measuring calcium flux in CCR1 transfected cells (block of CCR1/MIP-1α interaction)
# Details: cells stably expressing recombinant CCR1 and G-alpha-16, MIP-1alpha added at EC80
Measure name: IC50 (nM)

| Smiles code | Observed measurement |
| --- | --- |
| CS(=O)(=O)c1ccc(C2(NC(=O)c3cncc4c3cnn4-c3ccc(F)cc3)CC2)cn1 | 7 |
| O=C(NC1(c2ccc(Br)nc2)CC1)c1cncc2c1cnn2-c1ccc(F)cc1 | 19 |
| O=C(NC1(c2cccc(F)c2)CC1)c1cncc2c1cnn2-c1ccc(F)cc1 | 13 |
| O=C(NC1(c2cccc(Br)c2)CC1)c1cncc2c1cnn2-c1ccc(F)cc1 | 1 |
| O=C(NC1(c2nncs2)CC1)c1cncc2c1cnn2-c1ccc(F)cc1 | 265 |
